B1: Hairpin Ribozyme (parent)
chain: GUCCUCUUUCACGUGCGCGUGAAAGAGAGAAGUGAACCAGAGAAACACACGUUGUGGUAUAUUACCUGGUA

# Variants of: B1
# assay protocol: self-cleavage, relative activity (ratio to wild type); higher = more cleavage; co-transcriptional
Think of 0.3 as a floor: if self-cleavage stands on it or above, it is 1.0; beneath it, 0.0.

{"columns": ["sequence input", "category label"],
 "data": [
  ["GUCCUCUUUCACGUGCGCGUGAAAGAGAGAAGUGAACCAGAGAAACACAAUUUGUGGUAUAUUACCUGGUA", 1.0],
  ["GUCCUCUUUCACGUGCGCGUUAAAGAGAGAAGUGAACCAGAGAAACACAUGUUGUGGUAUAUUACCUGGUA", 1.0],
  ["GUCCUCUUUCACGUGCGCGUGAAAGAGAGAAGUGAACCAGAGAAACACACGUUGUGGUACAUGACCUGGUA", 0.0],
  ["GUCCUCUUUCACGUGCGCGUGAAAGAGAGCAGUGAACCAGAGAAACACACGUUGUGGUAUAUUACCUGCUA", 1.0],
  ["GUCCUCUUGCACGUGCGCGUGAAAGAGAGAAGUGAACCAGAGAAACACACGUUGUGGUAUAAUACCUGGUA", 0.0],
  ["GUCCCCUUUCACGUGCGCGUGAAAGAGAGAAGUGAACCAGAGAAAUACACGUUGUGGUAUAUUACCUGGUA", 0.0]
]}
